tested on: BT-549 breast; assay: NCI-60 one-dose screen, 48 h (100 = growth as untreated, 0 = no growth, -100 = all killed); details: 10 µM unless noted
About 83,000 compounds went through this panel and 20% of them were active in at least one assay; those are over-represented in the sample as a whole.
Listing of recorded growth by entry.
Note: unit % is implicit; provide only the numeric part.

Below: 5 compounds and their reported growth.
compound	unitAbbrev	measuredNumber
CCN(CC)c1ccc(/C=C/C(=O)c2cccc(NS(C)(=O)=O)c2)cc1	%	58.3
Cc1ccc(/C=C(/C#N)n2nnc3ncccc32)cc1	%	11.3
CC(=O)c1nn(-c2ccccc2)c(=Nc2ccccc2)cc1C	%	99
COc1ccc(-c2ccc(O)c(C(=O)/C=C/c3cc(OC)c(OC)c(OC)c3)c2)cc1	%	90.4
CC1c2ccccc2-c2ccccc2N1C (stereo unspecified)	%	103

Attention now shifts to the item below.
Need growth, item CCCCOP(=O)(OCCCC)C(C(=O)OCC)C(CC(=O)OCC)C(=O)OCC (stereo unspecified)
114

###

System: T-47D breast
Experiment: NCI-60 one-dose screen, 48 h (100 = growth as untreated, 0 = no growth, -100 = all killed)
Settings: 10 µM unless noted
Procedure: Growth inhibition of the T-47D human tumor cell line is measured as a screen for anti-cancer activity. Cells are grown in 96 well plates and exposed to the test compound for 48 hours. Compounds are tested at a single concentration, which is 10^-5 M for most compounds. The reported endpoint is percent growth (GI% or GIPRCNT), where numbers from 0 - 100% represent growth inhibition, and numbers from -100% - 0 represent cell death. For example, a value of 40 represents 60% growth inhibition. […]
The panel holds about 83,000 compounds, 20% with a hit somewhere; the sample as a whole holds those more often. Calls of active or inactive are those of the source. Rule for the calls: active = growth percent below 10; inactive = the rest.
measureName: growth

# annotated cases, reported growth shown
structureAsSmiles	growth
CCOC(=O)c1cc2oc(/C=C/c3cc(=O)c4cc(Cl)ccc4o3)cc2[nH]1	68.4% (inactive)
O=C(Nc1nc2c(C(F)(F)F)cccc2s1)c1cc(Cl)ccc1O	-1.67% (active)

Provide the documented growth with T-47D breast as the system for `N#Cc1c(NC(=O)c2ccco2)[n+]([O-])c2ccccc2[n+]1[O-]`
90.8% (inactive)

###

System: PC-3 prostate
Experiment: NCI-60 one-dose screen, 48 h (100 = growth as untreated, 0 = no growth, -100 = all killed)
Conditions: 10 µM unless noted
Procedure: Growth inhibition of the PC-3 human tumor cell line is measured as a screen for anti-cancer activity. Cells are grown in 96 well plates and exposed to the test compound for 48 hours. Compounds are tested at a single concentration, which is 10^-5 M for most compounds. The reported endpoint is percent growth (GI% or GIPRCNT), where numbers from 0 - 100% represent growth inhibition, and numbers from -100% - 0 represent cell death. For example, a value of 40 represents 60% growth inhibition. […]
Compounds without any hit were thinned out: in the full panel of roughly 83,000, 20% have a hit.
# reported growth; entries follow
Unit % implied. Number only.

Solved cases (2 shown):
compound	growth / %
NC(=O)c1cc(Cl)ccc1NC(=O)c1ccccc1-c1ccccc1	23.5
Cc1ccc(S(=O)(=O)NCCN2c3nc4ccccc4cc3Sc3cc4ccccc4nc32)cc1	77.3

Which growth value is on record for `COc1ccc(-c2cc(-c3cccnc3)nc(S(=O)(=O)CC(=O)Nc3ccc(C)cc3)c2C#N)cc1OC` ?
83.7

Suppose we examine the compound Cc1ccc(C(NC(=O)c2ccccc2)c2ccc3cccnc3c2O)cc1 (stereo not given) ; what growth value has been reported?
26.1

Which measured growth value corresponds to `COc1ccc2c3c(ccc2c1)C(=O)/C(=C\O)CC3` ?
88.2
